Target: human PPARα (Homo sapiens)
Construct: expressed in transfected cells; host or cells: CV-1 cells (transient transfection)
Sequence (Q07869 whole entry): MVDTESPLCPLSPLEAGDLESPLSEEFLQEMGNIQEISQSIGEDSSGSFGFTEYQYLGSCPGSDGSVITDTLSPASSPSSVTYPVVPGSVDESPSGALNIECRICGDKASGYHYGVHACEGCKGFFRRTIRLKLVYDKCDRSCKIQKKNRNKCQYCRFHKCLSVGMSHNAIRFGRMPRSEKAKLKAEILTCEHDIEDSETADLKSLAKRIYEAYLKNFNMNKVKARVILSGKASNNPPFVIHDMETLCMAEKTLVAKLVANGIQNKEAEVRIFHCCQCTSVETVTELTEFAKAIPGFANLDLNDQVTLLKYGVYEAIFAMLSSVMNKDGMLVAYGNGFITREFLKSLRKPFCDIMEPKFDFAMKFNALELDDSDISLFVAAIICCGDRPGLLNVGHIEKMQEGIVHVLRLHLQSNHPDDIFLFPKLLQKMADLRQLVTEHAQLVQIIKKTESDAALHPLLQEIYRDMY
Experiment: Human PPAR activation in transient transfection study, transfected CV-1 cells (alpha subtype)
Assay type: cell-based
Settings: Lot B, GLP Nonclinical Studies; read-out: EC50 PPARα
pEC50: −log10 of the molar value.

SMILES STRUCTURE	pEC50
CCc1oc(-c2ccc(OC)cc2)nc1CCOc1ccc2c(c1)CC[C@H]2CC(=O)[O-].[Na+]	6.12

###

Test: Rat brain penetrance pharmacokinetics, brain to plasma ratio after oral dosing
Assay type: in vivo, male Sprague-Dawley rats
Conditions: male, Sprague-Dawley, rat, in vivo, 3 mg/kg, time point 3.0, individual rats; read-out: Brain Tissue Cone.
READOUT LABEL: concentration at 3 h (ng/g)

MOLECULE	READOUT NUMBER
CCc1oc(-c2ccc(OC)cc2)nc1CCOc1ccc2c(c1)CC[C@H]2CC(=O)[O-].[Na+] [Example 11]	274

These entries and their values trace back to patent US20210212996A1.
